# System Tested: MSI1 full-length (mouse, UniProt Q61474 1-362)
# Sequence (Q61474 whole entry): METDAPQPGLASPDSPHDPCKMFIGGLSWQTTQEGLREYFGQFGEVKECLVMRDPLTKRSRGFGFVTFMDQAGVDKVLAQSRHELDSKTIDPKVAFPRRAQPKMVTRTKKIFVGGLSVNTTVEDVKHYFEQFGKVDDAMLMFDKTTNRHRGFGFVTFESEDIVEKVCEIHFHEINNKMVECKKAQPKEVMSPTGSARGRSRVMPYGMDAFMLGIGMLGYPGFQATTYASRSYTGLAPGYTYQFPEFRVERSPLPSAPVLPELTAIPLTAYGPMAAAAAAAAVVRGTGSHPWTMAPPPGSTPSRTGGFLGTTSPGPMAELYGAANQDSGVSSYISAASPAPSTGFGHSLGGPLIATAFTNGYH
# Procedure Summary: nsRBNS (natural sequence RNA bind-n-seq); RBNS binding buffer (assumed for nsRBNS): 25 mM Tris pH 7.5, 150 mM KCl, 3 mM MgCl2, 0.01% Triton X-100, 500 ug/ml BSA, 20 U/ml SUPERase-In, 4 C; UNK is unkempt and MSI1 is Musashi-1; names of the RNAs are library labels; protein concentration not given here; high values mean tight binding
In all, about 5,800 sequences were measured (“enrichment r”: median about 0.54, highest 2% from about 16 on). Only a selection was taken, and the highest values are over-represented in it overall.
Reported binding signal values follow for various binders
Just the number please, in enrichment R, no unit attached.

chr20:59325757:59325866:+|3pUTR|ENSG00000124205|unk|total|mutant (ssRNA) RNA: GGGAGUUCUACAGUCCGACGAUCUUAUGUGGAUCUGUUCAAAGCCGUCACUGUAUAUACGUACCGAGAGGCCGACCGGCCGGCCGAUUUUAAAUUGCAUUCUGAAUACAAACUCAUACUCCUCCGAGCUUGAAUUACAUUUUUCAACAGAGGAUUGAGCAUCA : 0.342
chr8:140515610:140515764:+|3pUTR|ENSG00000104472|unk|total|mutant (ssRNA) RNA: GGGAGUUCUACAGUCCGACGAUCUUUUGGAAUCAGUUCUUAUAAACAGCUCGAUUCAGUUUCCGCUAAAUUUACCGUUCCGGCCGUAUGUUACAUUUGAAUUUUUGUCUUAAGAAAAGUUGACUGUUCAGAUAUUUUUCUACUCAACAGAGGAUUGAGCAUCA : 0.336

Prompt line: Any idea what binding signal was measured for chr4:42087128:42087229:+|3pUTR|ENSG00000014824|msi1|FALSE|unique (ssRNA) RNA: GGGAGUUCUACAGUCCGACGAUCAUUUUGUAUAAUAUAGUUCAUACUGUGUCUGUGAGUUUCUUCAGUUACAAAUGGGCAUUUAGUAUAGUUAUAUUGACUAUAACAUGUAAGUAAAUAGCUUUCUACUGACCCUAAGUUAUCCAACAGAGGAUUGAGCAUCA ?
Response line: 2.94
